Attribution: paper PMC9911399

binding signal for assorted binders
Assay target: T1, RBFOX1 RRM (Homo sapiens, UniProt Q9NWB1 109-208)
T1 sequence: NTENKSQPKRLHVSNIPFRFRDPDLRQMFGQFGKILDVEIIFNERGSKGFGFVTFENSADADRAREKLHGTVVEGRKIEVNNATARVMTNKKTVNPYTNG
Method summary: EMSA; HiTS-Eq, 1 nM pool, 10 min; buffer printed only for the single-RNA assays: 10 mM Tris pH 7.5, 150 mM NaCl, 3.4 mM EDTA, 0.001% NP-40, 30 C
Particulars: tags: His6 N-terminal (pET28a); label: 5' 32P
Whole data set: some 16,000 sequences, median “ka relative to ugcaugu” near 0.0091, cut for the highest 2% near 0.032. Only a selection was taken, and the highest values are over-represented in it overall.
Readout kind: binding signal

{"columns": ["Binder", "Readout kind", "Recorded measurement"],
 "data": [
  ["UCAGGUU (DNA:RNA) RNA: GGGAGACCGGAAUUCAGAUUGUCCUCAGGUUUUAAAUCCCGUCGUAGCCACCA DNA 1: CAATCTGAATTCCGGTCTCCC DNA 2: TGGTGGCTACGACGGGATT", "binding signal", "0.0129 KA relative to UGCAUGU"],
  ["GAGAGCU (DNA:RNA) RNA: GGGAGACCGGAAUUCAGAUUGUCCGAGAGCUUUAAAUCCCGUCGUAGCCACCA DNA 1: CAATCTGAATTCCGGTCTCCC DNA 2: TGGTGGCTACGACGGGATT", "binding signal", "0.016 KA relative to UGCAUGU"],
  ["UUAAGUU (DNA:RNA) RNA: GGGAGACCGGAAUUCAGAUUGUCCUUAAGUUUUAAAUCCCGUCGUAGCCACCA DNA 1: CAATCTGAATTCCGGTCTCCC DNA 2: TGGTGGCTACGACGGGATT", "binding signal", "0.0109 KA relative to UGCAUGU"],
  ["GACCCGU (DNA:RNA) RNA: GGGAGACCGGAAUUCAGAUUGUCCGACCCGUUUAAAUCCCGUCGUAGCCACCA DNA 1: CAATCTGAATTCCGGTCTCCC DNA 2: TGGTGGCTACGACGGGATT", "binding signal", "0.00715 KA relative to UGCAUGU"],
  ["AAAACUA (DNA:RNA) RNA: GGGAGACCGGAAUUCAGAUUGUCCAAAACUAUUAAAUCCCGUCGUAGCCACCA DNA 1: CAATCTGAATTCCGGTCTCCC DNA 2: TGGTGGCTACGACGGGATT", "binding signal", "0.00178 KA relative to UGCAUGU"],
  ["CGCCAGG (DNA:RNA) RNA: GGGAGACCGGAAUUCAGAUUGUCCCGCCAGGUUAAAUCCCGUCGUAGCCACCA DNA 1: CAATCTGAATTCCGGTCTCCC DNA 2: TGGTGGCTACGACGGGATT", "binding signal", "0.0105 KA relative to UGCAUGU"],
  ["GGAAAAU (DNA:RNA) RNA: GGGAGACCGGAAUUCAGAUUGUCCGGAAAAUUUAAAUCCCGUCGUAGCCACCA DNA 1: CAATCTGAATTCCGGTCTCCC DNA 2: TGGTGGCTACGACGGGATT", "binding signal", "0.00757 KA relative to UGCAUGU"],
  ["GUUUUGU (DNA:RNA) RNA: GGGAGACCGGAAUUCAGAUUGUCCGUUUUGUUUAAAUCCCGUCGUAGCCACCA DNA 1: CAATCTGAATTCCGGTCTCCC DNA 2: TGGTGGCTACGACGGGATT", "binding signal", "0.0195 KA relative to UGCAUGU"],
  ["CCUGCUU (DNA:RNA) RNA: GGGAGACCGGAAUUCAGAUUGUCCCCUGCUUUUAAAUCCCGUCGUAGCCACCA DNA 1: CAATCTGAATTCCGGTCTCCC DNA 2: TGGTGGCTACGACGGGATT", "binding signal", "0.0137 KA relative to UGCAUGU"]
]}
